Items are presented alongside their recorded PBM binding z-score.
# System: RARa:RXR (NR concentration 270 nM, RXRa partner concentration 90 nM)
# Test summary: PBM binding z-score (relative to random genomic background probes); higher = stronger binding; sequences stand for … in GC…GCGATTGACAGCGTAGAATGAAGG

Sample records with PBM binding z-score:
Chain: AGAACGAGGGAACGCTGAGTTGATAGCAGAGTAG
Value: -0.613

Chain: ACTATTAGTTGACTTAGGGCAACAGATACGACGC
Value: 0.356

Chain: ACTAGCAGGCCGAGGGTCACTCAAGATTAGTCCG
Value: 2.32

Recall and state the measured PBM binding z-score for CCAGACAGGTGAAGGGTAACTCAGTCTGGTACGC .
0.0219

Recall and state the measured PBM binding z-score for ATCTCTAGGTAAAGATAGTTCAGTCAATGCAAAT .
0.522

Recall and state the measured PBM binding z-score for ACAGACAGGTGCGTGAAGGTAACTCAGCTGGACG .
-0.585

----------
Items are presented alongside their recorded PBM binding z-score.
# System: PPARa:RXRa (NR concentration 270 nM, RXRa partner concentration 90 nM)
# Test summary: PBM binding z-score (relative to random genomic background probes); higher = stronger binding; sequences stand for … in GC…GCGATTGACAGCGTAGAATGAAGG
Please reply with the value in numeric form only.

Recall and state the measured PBM binding z-score for ATATGTAGGTTATCGGGTCATTCGGTTTGCGCAT .
4.68

Recall and state the measured PBM binding z-score for CCTCGGAGGACAGAAGGTGAGAGCTGTCCGCTTT .
-0.0914

Recall and state the measured PBM binding z-score for TTTGCTAGGTCAGTTGGTCAGCTAACGAGCTGCC .
1.54

Recall and state the measured PBM binding z-score for CCTTACGGGTCAATCCAGGTTATAGCATCGGAGT .
4.76

Recall and state the measured PBM binding z-score for ACCGACAGGTGAGTGAAGGTAACTCAGCTGGACG .
0.00904

Recall and state the measured PBM binding z-score for TCTAGTTGGTCACGGAGGTTACACACGACGGGTA .
1.96

Recall and state the measured PBM binding z-score for TCGAGCAGGTTAGTCGGGGCATTCAGCCAACATA .
0.572

----------
# System: PPARg homodimer (NR concentration 180 nM)
# Test summary: PBM binding z-score (relative to random genomic background probes); higher = stronger binding; sequences stand for … in GC…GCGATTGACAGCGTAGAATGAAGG
Where PBM binding z-score equals or exceeds 1, the correct label is Criterion met; where it does not, the label is Criterion not met.

Before answering, review these 10 worked examples.
Chain: CGTCCAAGGTCAATGCTAGGTCAGTAAAAGCATT
Assigned label: Criterion met
//
Chain: CGTTACGGGTCACTGACAGGTTATAGCATTTGGA
Assigned label: Criterion met
//
Chain: GCTCGGAGGACCAGGTCAGAGCTTTGTCCGTAGA
Assigned label: Criterion not met
//
Chain: CGAAATAGGTCATCCAGGACAGTGAATACATTGA
Assigned label: Criterion met
//
Chain: CGAACTAGGTGAAGGACAGTGAATCTCCGCACGC
Assigned label: Criterion not met
//
Chain: CAAACTAGGTCACCGGAAGGTCAAAGACCGCATG
Assigned label: Criterion met
//
Chain: ATATGTAAGTTATCGGGTCATTCAGTTTGCGCAT
Assigned label: Criterion met
//
Chain: CGTCAAAGTACAAGGTAACGTAACAGAAAGCAGC
Assigned label: Criterion not met
//
Chain: AGCATGAGGTTAAGATCAGGGAAACAGAATACAT
Assigned label: Criterion not met
//
Chain: TCGAGTAGGTTACCAATTGGGCATTCAGCTTTCT
Assigned label: Criterion not met

Could you now consider this next sequence?
Does PBM binding z-score meet or surpass 1 for AGAACGAGGGCAATGAGTTGAAAGCACGGGTGGC ?
Criterion not met
